Taken from ChEMBL document CHEMBL1777763.

Tested on: Rattus norvegicus
Test: AUC (0 to 6 hrs) in rat at 10 mg/kg, po
Type: ADME, organism-based, Plasma
Design: time < 6 hr, dose 10 mg/kg, route oral
Conditions: in vivo
Would you kindly list AUC for each of these compounds?
Your reply should be a number followed by the unit it is expressed in.

Would you kindly share the measured AUC for Cc1c(Nc2ccc(C#N)cc2Cl)ncnc1O[C@H]1CC2CC[C@@H](C1)N2S(=O)(=O)C1CC1 (single isomer, unassigned) ?
2.17 µM·h

What does the record list as AUC for Cc1ncccc1Oc1ncnc(O[C@H]2CC3CC[C@@H](C2)N3C(=O)OC2(C)CC2)c1C (single isomer, unassigned) ?
2.84 µM·h

What AUC value was documented for this compound, CC(C)OC(=O)N1CCC(Oc2cc(Oc3ccc(S(C)(=O)=O)cc3F)ncn2)CC1 ?
20.7 µM·h

Reported AUC, compound Cc1c(Oc2ccccc2C#N)ncnc1O[C@H]1CC2CC[C@@H](C1)N2S(=O)(=O)C1CC1 (single isomer, unassigned) : ____
0.461 µM·h

Could you tell me which AUC is on file for Cc1ncccc1Oc1ncnc(O[C@H]2CC3CC[C@@H](C2)N3S(=O)(=O)CC(C)C)c1C (single isomer, unassigned) ?
0 µM·h

What does the record list as AUC for Cc1ncccc1Oc1ncnc(O[C@H]2CC3CC[C@@H](C2)N3C(=O)OC(C)C)c1C (single isomer, unassigned) ?
0.175 µM·h

Give the measured AUC of Cc1ncccc1Oc1ncnc(O[C@H]2CC3CC[C@@H](C2)N3S(=O)(=O)C2CC2)c1C (single isomer, unassigned) .
0.879 µM·h
